System: SK-MEL-5
Experiment: NCI tumour cell line growth inhibition, 48 h
Calls of active or inactive are those of the source. Cut-off read from the data, not from the text of the source: active = GI50 up to about 1.1 µM and inactive = higher.
measure: GI50

compound="O=C(CC(NC(=O)C(F)(F)F)C(=O)O)OCc1ccccc1 (configuration not stated)" system_name=SK-MEL-5 recorded_measurement="> 100 µM (inactive)"
compound=O=C(O)Cn1ccc(=O)c2cc([N+](=O)[O-])ccc21 system_name=SK-MEL-5 recorded_measurement="> 100 µM (inactive)"
compound=Cc1ccc(/N=N/c2c(-c3ccccc3)nn(C(=O)CC(=O)Nc3ccc(Cl)cc3)c2-c2ccccc2)cc1 system_name=SK-MEL-5 recorded_measurement="90.8 µM (inactive)"
compound=C/C(=N\c1cccc(Cl)c1)c1ccncc1 system_name=SK-MEL-5 recorded_measurement="> 100 µM (inactive)"
compound="CNc1c2c(c3nc4ccccc4c4c3c1N=C4)NCCC2=O [PLAKINIDINE A]" system_name=SK-MEL-5 recorded_measurement="6.55 µM (inactive)"
compound=CCC(C)(C)c1ccc(OCCCCNC(=O)c2ccc3ccccc3c2O)c(C(C)(C)CC)c1 system_name=SK-MEL-5 recorded_measurement="19.3 µM (inactive)"
compound="O=[N+]([O-])c1ccc2c(c1)N=C1OC(c3c[nH]c4ccc(COc5ccccc5)cc34)C(O)=C1N2 (configuration not stated)" system_name=SK-MEL-5 recorded_measurement="37.5 µM (inactive)"
compound=C=CC(OCC)(OCC)OCC system_name=SK-MEL-5 recorded_measurement="> 100 µM (inactive)"
compound="O=C(CCN1CCCCC1)N1CCc2c([nH]c3ccccc23)C1c1cccnc1 (configuration not stated)" system_name=SK-MEL-5 recorded_measurement="21.3 µM (inactive)"
compound=COC(=O)c1c(C(=O)OC)c2cc(C(=O)c3ccccc3)ccn2c1Cl system_name=SK-MEL-5 recorded_measurement="16.2 µM (inactive)"
compound=CN(C)CCNC(=O)c1cccc(NC(=O)c2ccccc2)c1[N+](=O)[O-] system_name=SK-MEL-5 recorded_measurement="77.1 µM (inactive)"
compound="O=C1OC(=O)C2C1C(c1ccccc1[N+](=O)[O-])C=C(c1ccco1)N2c1ccncc1 (configuration not stated)" system_name=SK-MEL-5 recorded_measurement="4.09 µM (inactive)"
compound="CCNc1nc2c(ncn2C2CC(O)C(COP(=O)(O)O)O2)c(=O)[nH]1 (configuration not stated)" system_name=SK-MEL-5 recorded_measurement="> 100 µM (inactive)"
compound="O=C(c1cccnc1)N1N=C(c2ccc(Cl)cc2)CC1(O)c1cc(F)c(Cl)cc1Cl (configuration not stated)" system_name=SK-MEL-5 recorded_measurement="11.3 µM (inactive)"
compound="O=CN(CCN1CCCC1)C1CCc2cc(Cl)c(Cl)cc2C1 (configuration not stated)" system_name=SK-MEL-5 recorded_measurement="27.2 µM (inactive)"
compound=NC(=S)N/N=C/c1ccc(OC(=O)COc2ccccc2Cl)cn1 system_name=SK-MEL-5 recorded_measurement="24.8 µM (inactive)"
compound="CC(CN(C)C)C(=O)c1ccccc1 (configuration not stated)" system_name=SK-MEL-5 recorded_measurement="> 82.4 µM (inactive)"

====

Test system: A549
Test: NCI tumour cell line growth inhibition, 48 h
Calls of active or inactive are those of the source. Rule as the data show it: active = GI50 up to about 1.1 µM and inactive = higher.
Outcome codes: active, inactive

compound="CC(CN(C)C)C(=O)c1ccccc1 (stereo unspecified)" discrete_label=inactive
compound=N#Cc1c(-c2ccc(Cl)cc2)c2c([nH]c1=O)-c1cc([N+](=O)[O-])ccc1CCC2 discrete_label=inactive
compound=c1ccc(CNn2nnc3ccccc32)cc1 discrete_label=inactive
compound=Cc1cnc2c(C)ccc([N+](=O)[O-])c2c1NCCCN(C)C discrete_label=inactive
compound="CC(=O)O[C@]12CCCC1C1(O)C(O)CCCC12 (stereo partly specified)" discrete_label=inactive
compound=O=C1Nc2ccc(S(=O)(=O)N(CCO)CCO)cc2/C1=C1/Nc2ccccc2C1=O discrete_label=inactive
compound=O=C1c2c(O)cccc2C(C(=O)CCCCCC(=O)C2c3cccc(O)c3C(=O)c3c(O)cccc32)c2cccc(O)c21 discrete_label=active
compound=CCc1cc(C(=O)OC)cn1C(=N)c1ccc(Cl)cc1 discrete_label=inactive
compound="NC1C/C(=N\\O)c2c(Cl)sc(Cl)c21 (stereo unspecified)" discrete_label=inactive
compound=COc1ccc(OC)c(CNc2ccc(O)c(C(=O)NCCc3ccc(F)cc3)c2)c1 discrete_label=inactive
compound=Clc1nc(Cl)c(Cl)c(Cl)n1 discrete_label=inactive

====

Test system: RPMI-8226
Assay: NCI tumour cell line growth inhibition, 48 h
Calls of active or inactive are those of the source. No stated cut-off is given here; in the data, active = GI50 up to about 1.1 µM and inactive = higher.
Outcome codes: Y = active, N = inactive

molecule=O=c1[nH]c2cc([N+](=O)[O-])c(N(CCO)CCO)c([N+](=O)[O-])c2[nH]1 discrete_label=N
molecule=O=C(NCCCNC(=O)c1ccc2c(O)c(O)ccc2c1)c1ccc2c(O)c(O)ccc2c1 discrete_label=N
molecule="N=C(N)C1CN(CCCCCCCCCCN2CC(C(=N)N)C(O)=NC2=O)C(=O)N=C1O (centres undefined)" discrete_label=N
molecule=O=C1CSC2(CCN(CCCN3c4ccccc4Sc4ccc(Cl)cc43)CC2)N1 discrete_label=N
molecule=COc1cc(-c2c[nH]c3ccccc23)nc(-c2c[nH]c3ccccc23)n1 discrete_label=N
molecule="CN(C)C(=O)C(F)(F)C(c1ccc(C(F)(F)F)cc1)C1C(=O)N(C)C(=O)N(C)C1=O (centres undefined)" discrete_label=N
molecule=O=C1c2cccc3cc4ccccc4c(c23)C(=O)N1CCNCCN1C(=O)c2cccc3cc4ccccc4c(c23)C1=O discrete_label=Y
molecule="O=C(CCN1CCCCC1)N1CCc2c([nH]c3ccccc23)C1c1cccnc1 (centres undefined)" discrete_label=N
molecule=O=C(Nc1ccc([N+](=O)[O-])cc1Cl)c1cccc([N+](=O)[O-])c1O discrete_label=Y

====

Tested on: UACC-62
Experiment: NCI tumour cell line growth inhibition, 48 h
The source made the active and inactive calls. No stated cut-off is given here; in the data, active = GI50 up to about 1.1 µM and inactive = higher.
In this section, each of the compounds is paired with its reported GI50.
measure: GI50

compound="Cc1ccc(C(CC(=O)C(C)(C)CN2CCCCC2)SCCS(=O)(=O)O)cc1 (configuration not stated)" recorded_measurement="21.7 µM (inactive)"
compound=COC(=O)C1(Cc2ccc3c(c2)CCC3)Cc2ccccc2C1 recorded_measurement="36.1 µM (inactive)"
compound=O=c1oc2ccccc2cc1P(=O)(O)O recorded_measurement="> 100 µM (inactive)"
compound=NS(=O)(=O)c1ccc(NC(=O)Cc2nc3ccccc3s2)cc1 recorded_measurement="15.7 µM (inactive)"
compound="CC(=O)SSC1(Cl)C(C)(C)C(Cl)(SSC(C)=O)C1(C)C (configuration not stated)" recorded_measurement="52.6 µM (inactive)"
compound=CC(=O)c1ccc(O)c(CN(C2CCCCC2)C2CCCCC2)c1O recorded_measurement="> 100 µM (inactive)"
compound="COc1ccc(N2C(=O)C3ON(C(C(N)=O)c4ccccc4)C(c4ccc(-c5ccccc5)cc4)C3C2=O)cc1 (configuration not stated)" recorded_measurement="> 50 µM (inactive)"
compound=CCN(CC)C(=S)Nc1ccc(-c2cc3ccc(O)cc3oc2=O)cc1 recorded_measurement="32.4 µM (inactive)"
compound=Cc1ccc(/N=N/c2c(-c3ccccc3)nn(C(=O)CC(=O)Nc3ccc(Cl)cc3)c2-c2ccccc2)cc1 recorded_measurement="70.5 µM (inactive)"
compound=N#Cc1nc(COCc2ccccc2)oc1N recorded_measurement="> 100 µM (inactive)"
compound=N#C/C(C(=O)Nc1ccccc1)=C(/N)N1CCOCC1 recorded_measurement="> 100 µM (inactive)"
compound=Cc1nc2c(o1)/C(=N\c1ccccc1)c1ccccc1C2=O recorded_measurement="3.37 µM (inactive)"
compound="CC1C[C@H](C)CC(C(O)CC2CC(=O)N(Cc3ccccc3)C(=O)C2)C1O (some centres not stated)" recorded_measurement="> 100 µM (inactive)"
compound=COC(=O)c1cc2ccc(OC(C)=O)c(OC(C)=O)c2cn1 recorded_measurement="2.09 µM (inactive)"
compound=O=C1CS[C@@](CC(c2ccc(Cl)cc2)c2ccc(Cl)cc2)(c2ccc(Cl)cc2)N1 recorded_measurement="12.5 µM (inactive)"
compound="O=C(O)CC1NCc2cc3ccccc3nc21 (configuration not stated)" recorded_measurement="> 100 µM (inactive)"
compound=CN(C)c1nncc2[nH]nnc12 recorded_measurement="> 100 µM (inactive)"
compound="O=c1ncccn1C1OC(CO)C(O)C1O (configuration not stated)" recorded_measurement="> 100 µM (inactive)"
compound=O=c1c2ccccc2c(=O)c2c1cc(Cl)c1[nH]c3c([nH]c12)c(Cl)cc1c(=O)c2ccccc2c(=O)c13 recorded_measurement="> 100 µM (inactive)"
compound=NC(=S)N/N=C/c1ccc(OC(=O)COc2ccccc2Cl)cn1 recorded_measurement="14.6 µM (inactive)"
compound="COC(=O)C1=CC[C@@H]2C(C(=O)O)=CO[C@@H](OC3OC(CO)C(O)C(O)C3O)[C@H]12 (some centres not stated)" recorded_measurement="> 300 µM (inactive)"
compound="O=C(O)c1ccc(C2C3C=CC(C3)C2[N+](=O)[O-])cc1 (configuration not stated)" recorded_measurement="> 100 µM (inactive)"
